- target or test system: PI3K δ (Homo sapiens, UniProt O00329)
- Construct: purchased Upstate / Millipore Corporation
- Sequence (O00329 whole entry): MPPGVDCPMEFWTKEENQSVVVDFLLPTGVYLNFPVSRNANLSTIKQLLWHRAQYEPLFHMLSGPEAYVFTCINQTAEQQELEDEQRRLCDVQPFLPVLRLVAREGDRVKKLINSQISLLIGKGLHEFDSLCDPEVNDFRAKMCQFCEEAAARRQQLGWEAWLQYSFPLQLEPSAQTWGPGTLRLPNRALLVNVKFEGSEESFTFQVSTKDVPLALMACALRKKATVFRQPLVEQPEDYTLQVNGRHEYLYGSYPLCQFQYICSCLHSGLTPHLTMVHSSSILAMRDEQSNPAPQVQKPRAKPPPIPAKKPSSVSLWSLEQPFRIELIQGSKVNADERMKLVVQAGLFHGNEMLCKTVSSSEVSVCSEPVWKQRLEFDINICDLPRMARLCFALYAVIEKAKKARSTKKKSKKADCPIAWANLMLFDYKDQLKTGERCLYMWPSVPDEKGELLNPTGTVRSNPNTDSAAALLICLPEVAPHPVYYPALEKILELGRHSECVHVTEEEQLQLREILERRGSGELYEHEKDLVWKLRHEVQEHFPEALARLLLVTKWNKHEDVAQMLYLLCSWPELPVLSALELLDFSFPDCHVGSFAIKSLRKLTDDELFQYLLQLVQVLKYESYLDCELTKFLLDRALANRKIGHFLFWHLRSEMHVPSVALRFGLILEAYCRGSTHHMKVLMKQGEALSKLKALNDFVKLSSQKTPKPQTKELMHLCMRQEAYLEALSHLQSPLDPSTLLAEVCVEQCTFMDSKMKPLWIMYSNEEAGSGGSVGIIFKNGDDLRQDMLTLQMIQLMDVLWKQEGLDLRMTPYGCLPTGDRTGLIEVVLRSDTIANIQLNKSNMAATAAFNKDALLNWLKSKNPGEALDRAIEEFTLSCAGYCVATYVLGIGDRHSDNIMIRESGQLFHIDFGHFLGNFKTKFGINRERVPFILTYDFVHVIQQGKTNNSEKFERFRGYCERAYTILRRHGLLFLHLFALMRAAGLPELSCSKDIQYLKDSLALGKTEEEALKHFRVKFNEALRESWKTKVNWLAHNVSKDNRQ
- Sequence (P27986 whole entry partner): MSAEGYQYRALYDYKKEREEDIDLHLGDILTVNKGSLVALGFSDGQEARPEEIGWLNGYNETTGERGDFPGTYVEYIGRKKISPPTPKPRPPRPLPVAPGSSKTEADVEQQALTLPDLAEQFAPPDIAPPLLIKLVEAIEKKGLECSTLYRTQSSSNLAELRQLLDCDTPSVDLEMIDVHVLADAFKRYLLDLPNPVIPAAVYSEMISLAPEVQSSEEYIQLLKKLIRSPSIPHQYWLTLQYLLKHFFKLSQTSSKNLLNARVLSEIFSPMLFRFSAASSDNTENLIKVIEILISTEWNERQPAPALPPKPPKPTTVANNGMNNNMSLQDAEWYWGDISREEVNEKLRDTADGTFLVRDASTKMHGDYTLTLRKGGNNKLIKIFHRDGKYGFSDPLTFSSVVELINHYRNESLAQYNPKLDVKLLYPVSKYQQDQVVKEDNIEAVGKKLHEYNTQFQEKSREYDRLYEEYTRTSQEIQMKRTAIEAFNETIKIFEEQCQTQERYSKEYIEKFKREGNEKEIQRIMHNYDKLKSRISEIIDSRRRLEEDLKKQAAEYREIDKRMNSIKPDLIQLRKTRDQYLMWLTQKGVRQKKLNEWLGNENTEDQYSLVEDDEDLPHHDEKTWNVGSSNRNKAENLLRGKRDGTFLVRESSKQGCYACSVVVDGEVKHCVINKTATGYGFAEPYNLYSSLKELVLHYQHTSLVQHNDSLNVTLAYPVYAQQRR
- measurement notes: PI 3-Kinase (human) HTRF assay, PI3K δ
- Format: biochemical
- test settings: read-out: PI3K δ IC50
pIC50: −log10 of the molar value.
Measured pIC50 of individual entries

molecule: CC1(C)CN(c2cnc3ccc(-c4ccc5oc(N)nc5c4)cc3n2)CCN1 [Compound 336]
pIC50: > 5.00
//
molecule: C[C@@H]1CN(C2CN(c3cnc4ccc(-c5ccc6oc(N)nc6c5)cc4n3)C2)CCN1 [Compound 355]
pIC50: > 6.00

Query :: Look at this molecule and give its reported pIC50. C[C@H]1CN(c2cnc3ccc(-c4ccc5sc(N)nc5c4)cc3n2)CCN1 [Compound 307]
Result :: < 5.00

Query :: Look at this molecule and give its reported pIC50. Nc1nc2cc(-c3ccc4sc(N)nc4c3)cc(F)c2o1 [Compound 437]
Result :: < 5.00

Query :: Look at this molecule and give its reported pIC50. CC(=O)N1CCN(C(=O)c2cnc3ccc(-c4ccc5oc(N)nc5c4)cn23)CC1 [Compound 113]
Result :: < 5.00

Query :: Look at this molecule and give its reported pIC50. Nc1nc2cc(-c3ccc4ncc(N5CCC(N6CCOCC6)CC5)nc4c3)ccc2o1 [Compound 171]
Result :: > 6.00

Query :: Look at this molecule and give its reported pIC50. Nc1nc2cc(-c3ccc4ncc(-c5cccnc5)n4n3)ccc2o1 [Compound 58]
Result :: > 7.00

Query :: Look at this molecule and give its reported pIC50. C[C@H]1CN(C2CN(C(=O)c3cnc4ccc(-c5ccc6oc(N)nc6c5)cn34)C2)CCN1 [Compound 510]
Result :: > 6.00

Query :: Look at this molecule and give its reported pIC50. O=C(c1cnc2ccc(-c3cnc4cn[nH]c4c3)cn12)N1CCOCC1 [Compound 535]
Result :: < 5.00

Query :: Look at this molecule and give its reported pIC50. Nc1noc2cc(-c3ccc4nccc(-c5ccncc5)c4c3)ccc12 [Compound 16]
Result :: > 5.00

----------
- target or test system: PI3K γ (p110γ) (Homo sapiens)
- Construct: purchased Upstate / Millipore Corporation
- measurement notes: PI 3-Kinase (human) HTRF assay, PI3K γ
- Format: biochemical
- test settings: read-out: PI3K γ IC50
Measured IC50 of individual entries

Some solved cases for reference:
molecule: Nc1nc2cc(-c3ccc4ncc(C(=O)N5CC(N6CCC(F)(F)C6)C5)n4c3)ccc2o1
IC50: < 1 µM

molecule: CN1CCN(CCc2nnc3ccc(-c4ccc5nc(N)oc5c4)cn23)CC1
IC50: > 10 µM

molecule: CN1CCN(CCCn2cnc3ccc(-c4ccc5oc(N)nc5c4)cc3c2=O)CC1
IC50: > 10 µM

molecule: Nc1nc2cc(-c3ccc4ncc(C(=O)N5CCC(N6CC(F)(F)C6)C5)n4c3)ccc2o1 (centres unmarked)
IC50: < 10 µM

molecule: Cc1nccn1C1CN(c2cnc3ccc(-c4ccc5oc(N)nc5c4)cc3n2)C1
IC50: < 10 µM

Query :: I'm curious: which IC50 was measured for Nc1nc2cc(-c3ccc4ncc(NCCN5CCCC5)nc4c3)ccc2o1 tested on PI3K γ (p110γ) (Homo sapiens)?
Result :: < 1 µM

Query :: I'm curious: which IC50 was measured for CS(=O)(=O)N1CCN(C2CCN(c3cnc4ccc(-c5ccc6oc(N)nc6c5)cc4n3)CC2)CC1 tested on PI3K γ (p110γ) (Homo sapiens)?
Result :: < 1 µM

Query :: I'm curious: which IC50 was measured for Nc1nc2cc(-c3ccc4ncc(C(=O)N5CCn6cncc6C5)n4c3)ccc2o1 tested on PI3K γ (p110γ) (Homo sapiens)?
Result :: < 10 µM

----------
Measured pIC50 of individual entries
- target or test system: mTOR (Homo sapiens, UniProt P42345)
- Construct: purchased Invitrogen
- Sequence (P42345 1360-2549 limits assumed): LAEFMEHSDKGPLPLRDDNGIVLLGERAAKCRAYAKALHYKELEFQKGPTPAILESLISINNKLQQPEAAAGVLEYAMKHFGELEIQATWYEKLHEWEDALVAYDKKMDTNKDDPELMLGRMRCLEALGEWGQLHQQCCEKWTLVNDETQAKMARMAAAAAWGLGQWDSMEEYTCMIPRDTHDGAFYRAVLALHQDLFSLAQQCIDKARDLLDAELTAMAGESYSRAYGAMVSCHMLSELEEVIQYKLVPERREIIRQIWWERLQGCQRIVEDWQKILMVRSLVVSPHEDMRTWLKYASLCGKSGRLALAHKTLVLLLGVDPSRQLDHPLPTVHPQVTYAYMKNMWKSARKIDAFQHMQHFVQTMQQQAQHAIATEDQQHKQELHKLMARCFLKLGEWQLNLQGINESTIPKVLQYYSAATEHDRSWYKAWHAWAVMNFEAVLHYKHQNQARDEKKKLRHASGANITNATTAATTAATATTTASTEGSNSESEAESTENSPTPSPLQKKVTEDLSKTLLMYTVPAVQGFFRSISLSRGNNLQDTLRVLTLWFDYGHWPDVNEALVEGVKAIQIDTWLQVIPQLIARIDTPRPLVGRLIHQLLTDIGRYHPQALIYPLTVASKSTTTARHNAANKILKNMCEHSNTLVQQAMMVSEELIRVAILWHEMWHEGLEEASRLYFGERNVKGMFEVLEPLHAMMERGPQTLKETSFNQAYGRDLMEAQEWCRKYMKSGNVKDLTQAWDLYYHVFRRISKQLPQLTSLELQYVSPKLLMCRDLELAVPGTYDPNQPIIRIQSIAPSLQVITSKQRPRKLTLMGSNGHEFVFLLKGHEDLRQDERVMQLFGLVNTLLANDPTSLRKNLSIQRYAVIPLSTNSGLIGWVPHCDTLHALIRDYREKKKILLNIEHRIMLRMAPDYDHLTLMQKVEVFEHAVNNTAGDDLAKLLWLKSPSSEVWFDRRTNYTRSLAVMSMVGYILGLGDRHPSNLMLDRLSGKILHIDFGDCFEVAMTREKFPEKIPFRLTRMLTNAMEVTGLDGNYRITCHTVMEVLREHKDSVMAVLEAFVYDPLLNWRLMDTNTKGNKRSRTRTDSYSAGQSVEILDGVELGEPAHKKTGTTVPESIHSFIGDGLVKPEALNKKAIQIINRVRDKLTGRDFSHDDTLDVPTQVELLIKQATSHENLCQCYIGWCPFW
- measurement notes: mTOR kinase inhibition assay (radiometric or LanthaScreen TR-FRET)
- Assay type: biochemical
- test settings: Table 4 (PI3K α inhibitors); read-out: mTORC IC50
pIC50: −log10 of the molar value.

Some solved cases for reference:
chem smiles: CC1(C)CN(C2CN(c3cnc4ccc(-c5ccc6oc(N)nc6c5)nc4n3)C2)CCN1
result: < 5.00
//
chem smiles: NCC(=O)N1CCN(c2cnc3ccc(-c4ccc5oc(N)nc5c4)nc3c2)CC1
result: < 5.00
//
chem smiles: Nc1nc2cc(-c3ccc4ncc(N5CCN(C(=O)C6(N)CC6)CC5)nc4n3)ccc2o1
result: > 5.00

Consider now this further compound.
Query :: Look at this compound and give its reported pIC50. CN1CCN(C2CN(c3cnc4ccc(-c5ccc6oc(N)nc6c5)nc4n3)C2)CC1
Result :: < 5.00

----------
- target or test system: PI3K γ (p110γ) (Homo sapiens, UniProt P48736)
- Construct: purchased Upstate / Millipore Corporation
- Sequence (P48736 whole entry): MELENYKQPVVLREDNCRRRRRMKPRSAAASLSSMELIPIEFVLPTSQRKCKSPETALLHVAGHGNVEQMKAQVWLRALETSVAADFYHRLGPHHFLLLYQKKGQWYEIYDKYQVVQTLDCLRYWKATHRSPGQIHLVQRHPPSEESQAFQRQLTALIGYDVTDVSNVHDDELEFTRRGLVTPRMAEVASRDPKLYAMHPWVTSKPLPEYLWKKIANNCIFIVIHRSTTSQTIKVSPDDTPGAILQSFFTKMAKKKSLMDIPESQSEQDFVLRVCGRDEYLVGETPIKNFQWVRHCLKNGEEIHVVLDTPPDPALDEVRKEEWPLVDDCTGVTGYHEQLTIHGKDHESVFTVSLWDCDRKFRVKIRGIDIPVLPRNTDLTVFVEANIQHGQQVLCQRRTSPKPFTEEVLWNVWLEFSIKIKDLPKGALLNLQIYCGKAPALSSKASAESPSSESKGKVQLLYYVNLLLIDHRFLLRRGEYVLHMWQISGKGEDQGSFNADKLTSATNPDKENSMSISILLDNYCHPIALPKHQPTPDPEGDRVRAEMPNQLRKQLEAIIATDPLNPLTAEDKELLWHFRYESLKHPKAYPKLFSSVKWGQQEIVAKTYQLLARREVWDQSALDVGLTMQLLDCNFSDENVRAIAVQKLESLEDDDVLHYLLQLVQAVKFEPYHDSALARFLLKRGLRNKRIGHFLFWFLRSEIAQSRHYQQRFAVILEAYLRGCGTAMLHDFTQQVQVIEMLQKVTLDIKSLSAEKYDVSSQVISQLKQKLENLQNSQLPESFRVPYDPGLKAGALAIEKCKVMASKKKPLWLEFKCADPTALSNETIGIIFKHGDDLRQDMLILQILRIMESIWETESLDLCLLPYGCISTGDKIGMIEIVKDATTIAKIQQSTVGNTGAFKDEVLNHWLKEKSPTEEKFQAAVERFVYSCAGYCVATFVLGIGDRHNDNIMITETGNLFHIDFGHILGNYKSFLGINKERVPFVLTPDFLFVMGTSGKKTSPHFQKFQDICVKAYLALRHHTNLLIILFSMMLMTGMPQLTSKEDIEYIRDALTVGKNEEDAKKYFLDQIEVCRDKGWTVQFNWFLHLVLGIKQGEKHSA
- measurement notes: PI 3-Kinase (human) HTRF assay, PI3K γ
- Assay type: biochemical
- test settings: Table 4 (PI3K α inhibitors); read-out: PI3K γ IC50
pIC50: −log10 of the molar value.
metric name: pIC50

Query :: I'm curious: which pIC50 was measured for Cc1nccn1C1CN(c2cnc3ccc(-c4ccc5oc(N)nc5c4)nc3c2)C1 tested on PI3K γ (p110γ) (Homo sapiens, UniProt P48736)?
Result :: > 7.00

Query :: I'm curious: which pIC50 was measured for CC(C)N1CCN(C2CN(c3cnc4ccc(-c5ccc6oc(N)nc6c5)nc4n3)C2)CC1 tested on PI3K γ (p110γ) (Homo sapiens, UniProt P48736)?
Result :: < 5.00

Query :: I'm curious: which pIC50 was measured for CC(C)(N)C(=O)N1CCN(c2cnc3ccc(-c4ccc5oc(N)nc5c4)nc3c2)CC1 tested on PI3K γ (p110γ) (Homo sapiens, UniProt P48736)?
Result :: > 6.00

Query :: I'm curious: which pIC50 was measured for C[C@H](N)C(=O)N1CCN(c2cnc3ccc(-c4ccc5oc(N)nc5c4)nc3c2)CC1 tested on PI3K γ (p110γ) (Homo sapiens, UniProt P48736)?
Result :: > 6.00

Query :: I'm curious: which pIC50 was measured for C[C@@H]1CN(c2cnc3ccc(-c4ccc5oc(N)nc5c4)nc3n2)CCN1 tested on PI3K γ (p110γ) (Homo sapiens, UniProt P48736)?
Result :: > 6.00

----------
Measured IC50 of individual entries
- target or test system: PI3K γ (p110γ) (Homo sapiens, UniProt P48736)
- Construct: purchased Upstate / Millipore Corporation
- measurement notes: PI 3-Kinase (human) HTRF assay, PI3K γ
- Format: biochemical
- test settings: Table 4 (PI3K α inhibitors); read-out: PI3K γ IC50

Some solved cases for reference:
molecule: Nc1nc2cc(-c3ccc4nc(N5CCOCC5)cnc4n3)ccc2o1
result: > 10000 nM
--
molecule: CCOC(=O)N1CC=C(c2cnc3ccc(-c4ccc5oc(N)nc5c4)nc3n2)CC1
result: < 100 nM
--
molecule: Nc1nc2cc(-c3ccc4ncc(N5CC(N6CCN(CCO)CC6)C5)cc4n3)ccc2o1
result: < 1000 nM
--
molecule: Nc1nc2cc(-c3ccc4ncc(N5CCN(C(=O)C6(N)CC6)CC5)cc4n3)ccc2o1
result: < 100 nM
--
molecule: C[C@H]1CN(C2CN(c3cnc4ccc(-c5ccc6oc(N)nc6c5)nc4n3)C2)CCN1C [Compound 606]
result: < 10000 nM
--
molecule: CCN(CC)c1cnc2ccc(-c3ccc4oc(N)nc4c3)nc2n1
result: < 1000 nM
--
molecule: CC(C)N1CCN(C2CN(c3cnc4ccc(-c5ccc6oc(N)nc6c5)nc4c3)C2)CC1
result: < 10000 nM

Consider now this further molecule.
Query :: I'm curious: which IC50 was measured for C[C@@H]1COCCN1C1CN(c2cnc3ccc(-c4ccc5oc(N)nc5c4)nc3c2)C1 tested on PI3K γ (p110γ) (Homo sapiens, UniProt P48736)?
Result :: < 100 nM

----------
- target or test system: PI3K β (p110β/p85α) (Homo sapiens, UniProt P42338)
- Construct: purchased Upstate / Millipore Corporation
- measurement notes: PI 3-Kinase (human) HTRF assay, PI3K β
- Format: biochemical
- test settings: read-out: PI3K β IC50
pIC50: −log10 of the molar value.
metric name: pIC50

Some solved cases for reference:
compound: Nc1nc2cc(-c3ccc4c(N)n[nH]c4c3)ccc2o1 [Compound 428]
pIC50: > 5.00

compound: Cc1cc(-c2ccc3oc(N)nc3c2)cc2c(C(=O)N3CCCC3)cnn12 [Compound 368]
pIC50: > 5.00

compound: Cc1cc(-c2ccc3nc(N)oc3c2)cn2c(C(=O)N3CCOCC3)cnc12 [Compound 449]
pIC50: > 6.00

Query :: Look at this compound and give its reported pIC50. Nc1nc2cc(-c3ccc4ncc(=O)[nH]c4c3)ccc2o1 [Compound 72]
Result :: > 6.00

Query :: Look at this compound and give its reported pIC50. Nc1nc2cc(-c3ccc4ncc(N5CCn6cncc6C5)nc4c3)ccc2o1 [Compound 394]
Result :: > 7.00

Query :: Look at this compound and give its reported pIC50. Nc1nc2c(-c3ccc4ncc(C(=O)N5CCOCC5)n4c3)cccc2o1 [Compound 496]
Result :: > 5.00
